tested on: EKVX; test: NCI tumour cell line growth inhibition, 48 h
The source made the active and inactive calls. Rule as the data show it: active = GI50 up to about 1.1 µM and inactive = higher.
measurement_name: GI50

{"columns": ["molecule", "measured_on", "reading"],
 "data": [
  ["CC(C)c1cccc(C(C)C)c1NC1=CC(=O)C(=O)c2ccccc21", "EKVX", "> 100 µM (inactive)"],
  ["COc1ccc(C(=O)C(C(=O)C(=O)Nc2ccc(Cl)c(Cl)c2)c2ccc(OC)cc2)cc1 (stereo not given)", "EKVX", "> 100 µM (inactive)"],
  ["CC(=O)ONC(C(=O)C(C)(C)C)C(=O)C(C)(C)C", "EKVX", "> 100 µM (inactive)"],
  ["CCN1CC2=C(N=c3s/c(=C\\c4ccc(Cl)cc4)c(=O)n3C2c2ccc(Cl)cc2)/C(=C/c2ccc(Cl)cc2)C1 (stereo not given)", "EKVX", "> 100 µM (inactive)"],
  ["COC(=O)C1=C(C(=O)OC)C2(C)OC1C(=O)C21CC1 (stereo not given)", "EKVX", "39.7 µM (inactive)"],
  ["CN(C)CCCn1c(-c2ccc(Br)cc2)cs/c1=N\\c1ccccc1", "EKVX", "10.8 µM (inactive)"],
  ["O=C1CCC(=O)N1CNc1ccc2c(c1)S(=O)(=O)c1ccccc1O2", "EKVX", "46 µM (inactive)"],
  ["O=C(Nc1ccc(Cl)cc1)NS(=O)(=O)c1coc2cc(F)ccc2c1=O", "EKVX", "> 100 µM (inactive)"],
  ["CCOC(=O)C1=C(NC(C)(C)C)OC/C1=N\\NC(=O)Cc1ccccc1", "EKVX", "> 100 µM (inactive)"],
  ["CSc1nc2c(c(=O)[nH]1)N=C(c1ccc(Cl)cc1)CC(c1ccccc1)N2 (stereo not given)", "EKVX", "18.3 µM (inactive)"]
]}

====

system: IGROV-1; experiment: NCI tumour cell line growth inhibition, 48 h
Activity calls are given as the source filed them. Cut-off read from the data, not from the text of the source: active = GI50 up to about 1.1 µM and inactive = higher.
Outcomes: active, inactive

{"columns": ["compound", "answer_label"],
 "data": [
  ["CCOC(=O)C1(c2ccccc2)CCCNCC1 (centres undefined)", "inactive"],
  ["O=C(O)C1C2CCC(O2)C1C(=O)Nc1cccc2cccnc12 (centres undefined)", "inactive"],
  ["CC[C@@]1(O)C(=O)OCc2c1cc1n(c2=O)Cc2c-1nc1ccc(O)cc1c2[Si](C)(C)C(C)(C)C", "active"],
  ["Cc1ccccc1C(O)(c1nccn1C)c1nccn1C", "inactive"],
  ["Cc1cc2c(c(/C=N/c3ccccc3O)c1)OC1(C=C2)Oc2ccccc2C(=O)N1C (centres undefined)", "inactive"],
  ["CC(C)=CCOc1cc(NC(=S)c2ccsc2C)ccc1Cl", "inactive"],
  ["O=C(O)/C(=C/C=C/c1ccccc1)c1csc(-c2nc(/C(=C\\C=C\\c3ccccc3)C(=O)O)cs2)n1", "inactive"],
  ["Fc1ccc(C(OCCN2CC3CC2CN3CCCc2ccccc2)c2ccc(F)cc2)cc1 (centres undefined)", "inactive"],
  ["Cc1nc(N)sc1C(=O)/C=C/c1ccc(/C=C/C(=O)c2sc(NC(=O)CCCCCCCCC(=O)Nc3nc(C)c(C(=O)/C=C/c4ccc(/C=C/C(=O)c5sc(N)nc5C)cc4)s3)nc2C)cc1", "inactive"],
  ["O=C(N/N=C(/CCN1CCCC1)CC(c1ccccc1)c1c(O)c2ccccc2oc1=O)c1ccncc1 (centres undefined)", "inactive"],
  ["O=C(NCCCCCCCN1CCCCCCC1)C(C1CCCCC1)C1CCCCC1", "inactive"],
  ["CC(=O)/C(=C\\C1=CCCO1)C(=O)Nc1ccccc1C", "inactive"],
  ["C[C@H]1/C(=C/C(=O)OCCN(C)C)CC[C@H]2[C@H]1C(=O)C[C@H]1C(C)(C)[C@@H](O)CC[C@]21C", "inactive"],
  ["CC(C)C(NCc1c2ccccc2[n+]([O-])c2ccccc12)C(=O)O (centres undefined)", "inactive"],
  ["O=C1C(NCCc2cc(Br)c(O)c(Br)c2)=CC(=O)c2ncccc21", "inactive"],
  ["COc1ccc(C2C3CCc4ccccc4C3=NN2S(=O)(=O)c2cccc(C(=O)O)c2OC)cc1 (centres undefined)", "active"],
  ["O=[N+]([O-])c1ccc(NSc2ccccc2)cc1", "inactive"],
  ["COc1cc2c(cc1C)NC(=O)/C2=C/c1c(Cl)n(-c2ccccc2)c2ccccc12", "inactive"],
  ["CC[C@@H]1CC[C@@H]2[C@H](CC[C@]3(C)[C@@H](OS(=O)(=O)c4ccc(C)cc4)CC[C@@H]23)[C@H]1CO", "inactive"],
  ["COc1ccc2c(c1)-c1[nH]c3ccc(OC)cc3c1CC2", "inactive"],
  ["CCOC(=O)C1C(c2ccco2)C2(C#N)C(=N)OC1(C)C2(C#N)C#N (centres undefined)", "inactive"],
  ["O=C1Nc2ccccc2/C1=N/NC(=S)N1CCCCC1", "active"],
  ["Cc1cc2nc3c(C(O)CO)nn(-c4ccccc4)c3nc2cc1C (centres undefined)", "inactive"],
  ["O=C1C[C@H](CCC(=O)OCc2ccccc2)NC(=O)C[C@H](CCC(=O)OCc2ccccc2)NC(=O)C[C@H](CCC(=O)OCc2ccccc2)N1", "inactive"],
  ["O=c1cc(N2CCCC2)[nH]c(=O)n1-c1ccc(Cl)cc1", "inactive"],
  ["CC(=O)OCC1OC(c2nnc(C)o2)=CC(OC(C)=O)C1OC(C)=O (centres undefined)", "inactive"],
  ["COCCN(C(=O)c1ccccc1)C1CCC(=O)c2[nH]c3ccccc3c21 (centres undefined)", "inactive"],
  ["COc1cc2cc(C(=O)N3C[C@H](CCl)c4c3cc(N)c3ccccc43)[nH]c2c(OC)c1OC", "active"],
  ["CCCCCN(CCCCC)C(=O)[C@H](CCC(=O)OCc1ccccc1)NC(=O)c1cc2ccccc2[nH]1", "inactive"],
  ["COc1cc([C@@H]2OCC3C(c4ccc5c(c4)OCO5)OCC32)cc(OC)c1OC (some centres undefined)", "inactive"],
  ["CN(Cc1cnc2nc(N)nc(N)c2n1)c1ccc(C(=O)NCCCS(=O)(=O)O)cc1", "inactive"],
  ["CCCC(=O)OCC(COC(=O)CCC)OC(=O)CCC", "inactive"],
  ["CN/N=C(/CC(=O)c1sc(NNC(C)=O)nc1C)C(=O)Nc1ccc(OC)cc1OC", "inactive"],
  ["COC(=O)c1ccc(/C=C2\\Oc3cc(O)ccc3C2=O)cc1", "inactive"],
  ["Oc1cccc2c1[nH]c1c(C3=C[C@@]4(O)CC/C=C\\CCCCN5CC[C@@H]3[C@]3(CC6/C=C\\CCCCN6[C@H]34)C5)nccc12 (some centres undefined)", "active"],
  ["CS(=O)(=O)c1nc(-c2cc3c(c(S(C)(=O)=O)n2)CCC3)cc2c1CCC2", "inactive"],
  ["CCOC(=O)C(=O)Nc1c(C(C)C)cccc1C(C)C", "inactive"],
  ["CN1CCc2c([nH]c3ccccc23)C1", "inactive"],
  ["C=C[C@@]12CCCCC1C/C(=C(/O)OC)C(=O)C2 (some centres undefined)", "inactive"]
]}

====

system: U-251; experiment: NCI tumour cell line growth inhibition, 48 h
Active and inactive are the calls of the source. Cut-off read from the data, not from the text of the source: active = GI50 up to about 1.1 µM and inactive = higher.
Form field: GI50 (one value per entry).

{"columns": ["compound", "GI50"],
 "data": [
  ["O=C(Nc1ccc(Cl)cc1)NS(=O)(=O)c1coc2cc(F)ccc2c1=O", "62.2 µM (inactive)"],
  ["OCn1nc2c(C3OCCO3)cc3ccccc3n2c1=S", "> 100 µM (inactive)"],
  ["CCOC(O)C(F)(F)F (stereo not given)", "> 100 µM (inactive)"],
  ["CC(C)c1cccc(C(C)C)c1NC1=CC(=O)C(=O)c2ccccc21", "> 100 µM (inactive)"],
  ["COc1cccc(/C=C(/C(=O)O)c2cc(OC)c(OC)c(OC)c2)c1", "> 100 µM (inactive)"],
  ["CC(=O)/C(=C\\C1=CCCO1)C(=O)Nc1ccccc1C", "> 100 µM (inactive)"],
  ["Nc1ccc(Oc2ccc(C3(c4ccc(Oc5ccc(N)c(O)c5)cc4)C4CC5CC(C4)CC3C5)cc2)cc1O", "1.7 µM (inactive)"],
  ["CC1=CC(C/C(C)=C/COc2ccc3ccc(=O)oc3c2)OC1=O (stereo not given)", "90.4 µM (inactive)"],
  ["COc1cc2c(cc1OC)C(=O)C1(C2)[C@H](c2ccccc2)C2C(=O)c3cc(OC)c(OC)cc3C2[C@H]1c1ccccc1 (stereo not given in full)", "> 100 µM (inactive)"],
  ["CCCCCCCCCCCCCCCCOP(=O)([O-])OCC[N+](C)(C)C", "15.3 µM (inactive)"]
]}

====

tested on: HT-29; test: NCI tumour cell line growth inhibition, 48 h
Activity calls are given as the source filed them. No stated cut-off is given here; in the data, active = GI50 up to about 1.1 µM and inactive = higher.

{"columns": ["sample_smiles", "measured_on", "GI50"],
 "data": [
  ["COc1ccc(NC(=S)c2ccc([N+](=O)[O-])o2)cc1", "HT-29", "1.26 µM (inactive)"],
  ["C[C@H]1/C(=C/C(=O)OCCN(C)C)CC[C@H]2[C@H]1C(=O)C[C@H]1C(C)(C)[C@@H](O)CC[C@]21C", "HT-29", "> 100 µM (inactive)"],
  ["Cc1nc(N)sc1C(=O)/C=C/c1ccc(/C=C/C(=O)c2sc(NC(=O)CCCCCCCCC(=O)Nc3nc(C)c(C(=O)/C=C/c4ccc(/C=C/C(=O)c5sc(N)nc5C)cc4)s3)nc2C)cc1", "HT-29", "> 100 µM (inactive)"],
  ["O=C1C(=Cc2ccccc2O)N=C(c2ccccc2)N1n1c(-c2ccccc2)nc2ccccc2c1=O", "HT-29", "37.2 µM (inactive)"]
]}
